Data provenance is ChEMBL document CHEMBL1127171.

biological target: GABA-A receptor; anion channel; experiment: Displacement of [3H]flunitrazepam from GABA-A benzodiazepine receptor (BZR) of rat brain membranes; format: cell membranes, Membrane
The label yes (1) is reserved for Ki strictly under 4 µM; no (0) covers values equal to or above it.

// below: answered compounds
INSERT INTO results (mol_smiles, category_label) VALUES
  ('CNC(=O)c1cc2c(c[n+]1C)[nH]c1ccccc12.[I-]', 'yes (1)'),
  ('CCCOC(=O)c1cc2c(c[n+]1C)[nH]c1ccccc12.[I-]', 'yes (1)'),
  ('CCCCOC(=O)c1cc2c(c[n+]1C)[nH]c1ccccc12.[I-]', 'no (0)'),
  ('COC(=O)c1cc2c(c[n+]1C)[nH]c1ccccc12', 'yes (1)');

Now examine the next entry.
Record `CCOC(=O)c1cc2c(c[n+]1C)[nH]c1ccccc12.[I-]` : is its Ki strictly below 4 µM?
yes (1)

###

target: Acetylcholinesterase (Electrophorus electricus) (UniProt O42275); assay: The compound was tested in vitro for the inhibition of acetylcholinesterase (AChE) isolated from electric eel at 10e-6 M
Sequence (O42275 24-633 limits assumed): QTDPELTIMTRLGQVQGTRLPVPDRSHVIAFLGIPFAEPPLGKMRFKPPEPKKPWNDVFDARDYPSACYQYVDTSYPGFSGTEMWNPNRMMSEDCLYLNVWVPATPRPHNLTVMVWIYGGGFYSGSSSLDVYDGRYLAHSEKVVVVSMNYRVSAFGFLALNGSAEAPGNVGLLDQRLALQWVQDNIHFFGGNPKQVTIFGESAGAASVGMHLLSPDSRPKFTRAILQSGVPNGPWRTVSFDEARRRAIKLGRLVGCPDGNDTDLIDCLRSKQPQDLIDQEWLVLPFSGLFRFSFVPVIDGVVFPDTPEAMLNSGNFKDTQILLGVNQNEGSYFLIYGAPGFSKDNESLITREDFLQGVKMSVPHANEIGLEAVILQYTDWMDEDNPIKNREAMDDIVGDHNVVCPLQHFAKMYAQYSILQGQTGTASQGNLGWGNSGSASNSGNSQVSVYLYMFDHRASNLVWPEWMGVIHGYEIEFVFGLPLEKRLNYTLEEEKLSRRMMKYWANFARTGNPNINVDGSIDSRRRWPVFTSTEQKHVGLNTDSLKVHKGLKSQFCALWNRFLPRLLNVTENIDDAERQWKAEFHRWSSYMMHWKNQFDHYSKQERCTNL
Threshold check on inhibition: at or above 10% gives yes (1), strictly below gives no (0).

Hi team, for `CN(C)C(=O)Oc1ccc[n+](C)c1` , is the recorded inhibition at or above 10%?
yes (1)

Hi team, for `CNC(=O)c1cc2c(c[n+]1C)[nH]c1ccccc12.[I-]` , is the recorded inhibition at or above 10%?
no (0)

Hi team, for `CCOC(=O)c1cc2c(c[n+]1C)[nH]c1ccccc12.[I-]` , is the recorded inhibition at or above 10%?
yes (1)

###

target: GABA-A receptor; anion channel; experiment: Displacement of [3H]flunitrazepam from GABA-A benzodiazepine receptor (BZR) of rat brain membranes (NA = no significant activity); assay type: cell membranes, Membrane
ATTRIBUTE MEASURED: pKi
Please treat pKi as minus the base-10 logarithm of the molar concentration.

Provide value of pKi for this record tested with GABA-A receptor; anion channel: `COC(=O)c1cc2c(cn1)[nH]c1ccccc12`
8.52

###

target: Acetylcholinesterase (Electrophorus electricus); assay: The compound was tested in vitro for the inhibition of acetylcholinesterase (AChE) isolated from electric eel at 10e-6 M
Threshold check on inhibition: at or above 8% gives 1.0, strictly below gives 0.0.

INSERT INTO measurements (molecule, test_system, category_label) VALUES
  ('CCOC(=O)c1cc2cc[nH]c2c[n+]1C.[I-]', 'Acetylcholinesterase (Electrophorus electricus)', 0.0),
  ('C[n+]1ccc2c(c1)[nH]c1ccccc12 [NORMELINONINE F]', 'Acetylcholinesterase (Electrophorus electricus)', 0.0),
  ('CC(C)OC(=O)c1cc2c(c[n+]1C)[nH]c1ccccc12.[I-]', 'Acetylcholinesterase (Electrophorus electricus)', 1.0);

Hi team, for `COC(=O)c1cc2c(c[n+]1C)[nH]c1ccccc12` , is the recorded inhibition at or above 8%?
0.0

Hi team, for `CCCCOC(=O)c1cc2c(c[n+]1C)[nH]c1ccccc12.[I-]` , is the recorded inhibition at or above 8%?
1.0

Hi team, for `CCCOC(=O)c1cc2c(c[n+]1C)[nH]c1ccccc12.[I-]` , is the recorded inhibition at or above 8%?
1.0
